- SUBJECT_OF_TEST: Cyclophilin A (Homo sapiens)
- Construct: made in house
- Sequence (P62937 whole entry, species assumed): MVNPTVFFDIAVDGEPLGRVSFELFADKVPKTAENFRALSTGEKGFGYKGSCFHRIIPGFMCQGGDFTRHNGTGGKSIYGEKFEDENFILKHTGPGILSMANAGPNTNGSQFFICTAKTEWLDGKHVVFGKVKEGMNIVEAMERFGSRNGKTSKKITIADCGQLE
- ASSAY_SUMMARY: AlphaLISA inhibition of binding of biotinylated Cyclosporin A to FLAG tagged Cyclophilin A
- REPORTED_CONDITIONS: test concentration not given
Where a SMILES comes first, the peptide text is derived from it. [ ]: non-standard residue; d: D form. MeBmt = C/C=C/C[C@@H](C)[C@@H](O)[C@H](NC)C(=O)O; NMeF = CN[C@@H](Cc1ccccc1)C(=O)O; NMeT = CN[C@H](C(=O)O)[C@@H](C)O; NMeL = CN[C@@H](CC(C)C)C(=O)O; NMeV = CN[C@H](C(=O)O)C(C)C; NMeA = CN[C@@H](C)C(=O)O; Abu = CC[C@H](N)C(=O)O; Sar = CNCC(=O)O
Consider the following compounds and their measured % inhibition of CsA binding to Cyclophilin A readings.
Reply with just the number (in %).

The following compounds have reported results that may help.
| COMPOUND | MEASURED_RESULT |
| --- | --- |
| C/C=C/C[C@@H](C)[C@@H](O)[C@H]1C(=O)N[C@@H](CC)C(=O)N(C)CC(=O)N(C)[C@@H]([C@@H](C)O)C(=O)N[C@@H](C(C)C)C(=O)N(C)[C@@H](C)C(=O)N[C@@H](C)C(=O)N[C@H](C)C(=O)N(C)[C@@H](CC(C)C)C(=O)N(C)[C@@H](CC(C)C)C(=O)N(C)[C@@H](C(C)C)C(=O)N1C [Compound C7] (cyclo([MeBmt][Abu][Sar][NMeT]V[NMeA]A[dA][NMeL][NMeL][NMeV])) | 97.35 |
| C/C=C/C[C@@H](C)[C@@H](O)[C@H]1C(=O)N[C@@H](CC)C(=O)N(C)CC(=O)N(C)[C@@H](Cc2ccccc2)C(=O)N[C@@H](CC(C)C)C(=O)N(C)[C@@H](C)C(=O)N[C@@H](C)C(=O)N[C@H](C)C(=O)N(C)[C@@H](CC(C)C)C(=O)N(C)[C@@H](CC(C)C)C(=O)N(C)[C@@H](C(C)C)C(=O)N1C [Compound C12] (cyclo([MeBmt][Abu][Sar][NMeF]L[NMeA]A[dA][NMeL][NMeL][NMeV])) | 96.78 |

Okay, now this compound:
Using the record for C/C=C/C[C@@H](C)[C@@H](O)[C@H]1C(=O)N[C@@H](CC)C(=O)N(C)CC(=O)N(C)[C@@H](Cc2ccccc2)C(=O)N[C@@H](C)C(=O)N(C)CC(=O)N[C@@H](C)C(=O)N[C@H](C)C(=O)N(C)[C@@H](CC(C)C)C(=O)N(C)[C@@H](CC(C)C)C(=O)N(C)[C@@H](C(C)C)C(=O)N1C [Compound C20] (cyclo([MeBmt][Abu][Sar][NMeF]A[Sar]A[dA][NMeL][NMeL][NMeV])) , report its % inhibition of CsA binding to Cyclophilin A.
97.23

---

- SUBJECT_OF_TEST: Cyclophilin A (Homo sapiens)
- Construct: made in house
- ASSAY_SUMMARY: AlphaLISA inhibition of binding of biotinylated Cyclosporin A to FLAG tagged Cyclophilin A
- REPORTED_CONDITIONS: AlphaLISA signal; test concentration not given
Where a SMILES comes first, the peptide text is derived from it. [ ]: non-standard residue; d: D form. MeBmt = C/C=C/C[C@@H](C)[C@@H](O)[C@H](NC)C(=O)O; NMeI = CC[C@H](C)[C@H](NC)C(=O)O; NMeT = CN[C@H](C(=O)O)[C@@H](C)O; NMeL = CN[C@@H](CC(C)C)C(=O)O; NMeV = CN[C@H](C(=O)O)C(C)C; NMeA = CN[C@@H](C)C(=O)O; Abu = CC[C@H](N)C(=O)O; Sar = CNCC(=O)O
Consider the following molecules and their measured % signal readings.
Reply with just the number (in %).

The following molecules have reported results that may help.
| MOLECULE | SUBJECT_OF_TEST | UNIT_SPEC | % signal |
| --- | --- | --- | --- |
| C/C=C/C[C@@H](C)[C@@H](O)[C@H]1C(=O)N[C@@H](CC)C(=O)N(C)CC(=O)N(C)[C@@H]([C@@H](C)CC)C(=O)N[C@@H](C(C)C)C(=O)N(C)[C@@H](CC(C)C)C(=O)N[C@@H](CC)C(=O)N[C@H](C)C(=O)N(C)[C@@H](CC(C)C)C(=O)N(C)[C@@H](CC(C)C)C(=O)N(C)[C@@H](C(C)C)C(=O)N1C [Compound C93] (cyclo([Abu][Sar][NMeI]V[NMeL][Abu][dA][NMeL][NMeL][NMeV][MeBmt])) | Cyclophilin A (Homo sapiens) | % | 1.28 |
| C/C=C/C[C@@H](C)[C@@H](O)[C@H]1C(=O)N[C@@H](CC)C(=O)N(C)CC(=O)N(C)[C@@H](C)C(=O)N[C@@H](CC(C)C)C(=O)N(C)[C@@H](CC(C)C)C(=O)N[C@@H](CC(C)C)C(=O)N[C@H](C)C(=O)N(C)[C@@H](CC(C)C)C(=O)N(C)[C@@H](CC(C)C)C(=O)N(C)[C@@H](C(C)C)C(=O)N1C [Compound C58] (cyclo([MeBmt][Abu][Sar][NMeA]L[NMeL]L[dA][NMeL][NMeL][NMeV])) | Cyclophilin A (Homo sapiens) | % | 3.28 |
| C/C=C/C[C@@H](C)[C@@H](O)[C@H]1C(=O)N[C@@H](CC)C(=O)N(C)CC(=O)N(C)CC(=O)N[C@@H](CC(C)C)C(=O)N(C)[C@@H](CC(C)C)C(=O)N[C@@H](CC(C)C)C(=O)N[C@H](C)C(=O)N(C)[C@@H](CC(C)C)C(=O)N(C)[C@@H](CC(C)C)C(=O)N(C)[C@@H](C(C)C)C(=O)N1C [Compound C61] (cyclo([MeBmt][Abu][Sar][Sar]L[NMeL]L[dA][NMeL][NMeL][NMeV])) | Cyclophilin A (Homo sapiens) | % | 14.38 |
| C/C=C/C[C@@H](C)[C@@H](O)[C@H]1C(=O)N[C@@H](CC)C(=O)N(C)CC(=O)N(C)[C@@H]([C@@H](C)O)C(=O)N[C@@H](C(C)C)C(=O)N(C)CC(=O)N[C@@H](C)C(=O)N[C@H](C)C(=O)N(C)[C@@H](CC(C)C)C(=O)N(C)[C@@H](CC(C)C)C(=O)N(C)[C@@H](C(C)C)C(=O)N1C [Compound C31] (cyclo([MeBmt][Abu][Sar][NMeT]V[Sar]A[dA][NMeL][NMeL][NMeV])) | Cyclophilin A (Homo sapiens) | % | −0.03 |

Okay, now this molecule:
Using the record for C/C=C/C[C@@H](C)[C@@H](O)[C@H]1C(=O)N[C@@H](CC)C(=O)N(C)CC(=O)N(C)CC(=O)N[C@@H](C)C(=O)N(C)CC(=O)N[C@@H](C)C(=O)N[C@H](C)C(=O)N(C)[C@@H](CC(C)C)C(=O)N(C)[C@@H](CC(C)C)C(=O)N(C)[C@@H](C(C)C)C(=O)N1C [Compound C21] (cyclo([MeBmt][Abu][Sar][Sar]A[Sar]A[dA][NMeL][NMeL][NMeV])) , report its % signal.
31.08
